- System: Madin Darby canine kidney (MDCK) cells
- measurement.context: MDCK cells; run with Influenza A H5N1 Duck/MN/1525/81; Visual
measured.quantity: CC50

Assign CC50 to the following record: NC(=O)c1ncn([C@@H]2O[C@H](CO)[C@@H](O)[C@H]2O)n1 [Ribavirin, reference compound]
> 320 µM

====

- method.summary: in vitro
- measurement.context: dog, CC50, MDCK cells; run with Influenza A H1N1 Solomon Is./3/2006-M; Visual
Bridge positions count the residues as written; N and C are the ends. Square brackets hold non-standard residues; d marks the D form. Peptide text beside a SMILES is read from it. S5 = C=CCCC[C@](C)(N)C(=O)O; Nle = CCCC[C@H](N)C(=O)O; Aib = CC(C)(N)C(=O)O
measured.quantity: CC50

Quickly give me recorded CC50 for CCCC[C@H](NC(C)=O)C(=O)N[C@@H](CC(=O)O)C(=O)N[C@H](C(=O)N[C@@H](CC(N)=O)C(=O)N[C@@]1(C)CCCC=CCCC[C@@](C)(C(=O)N[C@@H](CC(C)C)C(=O)N[C@@H](C)C(=O)N[C@H](C(=O)NC(C)(C)C(=O)N[C@@H](C)C(=O)N[C@@H](CCC(N)=O)C(N)=O)C(C)C)NC(=O)[C@H](CC(C)C)NC(=O)[C@H](CC(C)C)NC(=O)[C@H]([C@@H](C)O)NC1=O)C(C)C [SP-6] (Ac-[Nle]DVN[S5]TLL[S5]LAV[Aib]AQ-NH2; staple 5-9)
> 100 µM

====

- System: Madin Darby canine kidney (MDCK) cells
- measurement.context: MDCK cells; run with Influenza A H5N1 Duck/MN/1525/81; Neutral Red
measured.quantity: CC50

Look up and report measured CC50 for this entry: NC(=O)c1ncn([C@@H]2O[C@H](CO)[C@@H](O)[C@H]2O)n1 [Ribavirin, reference compound]
> 320 µM

====

- method.summary: in vitro
- measurement.context: dog, CC50 (μM) H3N2 Perth/16/2009, Cell cytotoxicity (CC), run with H3N2 Perth/16/2009
Bridge positions count the residues as written; N and C are the ends. Square brackets hold non-standard residues; d marks the D form. Peptide text beside a SMILES is read from it. R8 = C=CCCCCCC[C@@](C)(N)C(=O)O; S5 = C=CCCC[C@](C)(N)C(=O)O; Nle = CCCC[C@H](N)C(=O)O; Aib = CC(C)(N)C(=O)O
Assign CC50 to each entry below.

| molecule | CC50 |
| --- | --- |
| CCCC[C@H](NC(C)=O)C(=O)N[C@@H](CC(=O)O)C(=O)N[C@H](C(=O)N[C@@H](CC(N)=O)C(=O)N[C@]1(C)CCCCCCC=CCCC[C@@](C)(C(=O)N[C@@H](CCC(N)=O)C(=O)N[C@@H](C)C(=O)N[C@@H](CCC(N)=O)C(=O)N[C@@H](C)C(=O)N[C@@H](C)C(N)=O)NC(=O)[C@H](C)NC(=O)[C@H](CC(C)C)NC(=O)[C@H](Cc2ccccc2)NC(=O)[C@H](CC(C)C)NC(=O)[C@H](CC(C)C)NC(=O)[C@H]([C@@H](C)O)NC1=O)C(C)C [SP-26] (Ac-[Nle]DVN[R8]TLLFLA[S5]QAQAA-NH2; staple 5-12) | > 100 µM |

API: the following record is the query input.
// Input: CCCC[C@H](NC(C)=O)C(=O)N[C@@H](CC(=O)O)C(=O)N[C@H](C(=O)N[C@@H](CC(N)=O)C(=O)N[C@@]1(C)CCCC=CCCC[C@@](C)(C(=O)N[C@@H](CC(C)C)C(=O)N[C@@H](C)C(=O)N[C@H](C(=O)NC(C)(C)C(=O)N[C@@H](C)C(=O)N[C@@H](CCC(N)=O)C(=O)N[C@@H](C)C(=O)N[C@H](C)C(=O)O)C(C)C)NC(=O)[C@H](CC(C)C)NC(=O)[C@H](CC(C)C)NC(=O)[C@H]([C@@H](C)O)NC1=O)C(C)C [SP-17] (Ac-[Nle]DVN[S5]TLL[S5]LAV[Aib]AQA[dA]-OH; staple 5-9) . Output its CC50 only.
> 100 µM

====

- System: H3N2 Perth/16/2009
- method.summary: microbe, parasite or virus in culture
- Type: cell-based, influenza A virus
- measurement.context: read-out: EC50 (μM) H3N2 Perth/16/2009
Bridge positions count the residues as written; N and C are the ends. Square brackets hold non-standard residues; d marks the D form. Peptide text beside a SMILES is read from it. S5 = C=CCCC[C@](C)(N)C(=O)O; Nle = CCCC[C@H](N)C(=O)O; Aib = CC(C)(N)C(=O)O
measured.quantity: EC50

Some molecules with known EC50 results, for comparison:
| molecule | measured.quantity | measured |
| --- | --- | --- |
| CCCC[C@H](NC(C)=O)C(=O)N[C@@H](CC(=O)O)C(=O)N[C@H](C(=O)N[C@@H](CC(N)=O)C(=O)N[C@@]1(C)CCCC=CCCC[C@@](C)(C(=O)N[C@@H](CC(C)C)C(=O)N[C@@H](CCCCN)C(=O)N[C@@H](C)C(=O)NC(C)(C)C(=O)N[C@@H](C)C(=O)N[C@@H](CCC(N)=O)C(N)=O)NC(=O)[C@H](CC(C)C)NC(=O)[C@H](CC(C)C)NC(=O)[C@H]([C@@H](C)O)NC1=O)C(C)C [SP-1] (Ac-[Nle]DVN[S5]TLL[S5]LKA[Aib]AQ-NH2; staple 5-9) | EC50 | 25 to 50 µM |
| CCCC[C@H](NC(C)=O)C(=O)N[C@@H](CC(=O)O)C(=O)N[C@H](C(=O)N[C@@H](CC(N)=O)C(=O)N[C@@]1(C)CCCC=CCCC[C@@](C)(C(=O)N[C@@H](CC(C)C)C(=O)N[C@@H](C)C(=O)N[C@H](C(=O)NC(C)(C)C(=O)N[C@@H](C)C(=O)N[C@@H](CCC(N)=O)C(N)=O)C(C)C)NC(=O)[C@H](CC(C)C)NC(=O)[C@H](CC(C)C)NC(=O)[C@H]([C@@H](C)O)NC1=O)C(C)C [SP-6] (Ac-[Nle]DVN[S5]TLL[S5]LAV[Aib]AQ-NH2; staple 5-9) | EC50 | 25 to 50 µM |

--- query ---
State the measured EC50 (H3N2 Perth/16/2009) of CCCC[C@H](NC(C)=O)C(=O)N[C@@H](CC(=O)O)C(=O)N[C@H](C(=O)N[C@@H](CC(N)=O)C(=O)N[C@@]1(C)CCCC=CCCC[C@@](C)(C(=O)N[C@@H](CC(C)C)C(=O)N[C@@H](C)C(=O)N[C@H](C(=O)N[C@@H](CCC(N)=O)C(=O)N[C@@H](C)C(=O)N[C@@H](C)C(=O)NC(C)(C)C(=O)N[C@@H](C)C(N)=O)C(C)C)NC(=O)[C@H](CC(C)C)NC(=O)[C@H](CC(C)C)NC(=O)[C@H]([C@@H](C)O)NC1=O)C(C)C [SP-22] (Ac-[Nle]DVN[S5]TLL[S5]LAVQAA[Aib]A-NH2; staple 5-9)
< 1.5 µM
